B1: LINE1-full (parent)
chain: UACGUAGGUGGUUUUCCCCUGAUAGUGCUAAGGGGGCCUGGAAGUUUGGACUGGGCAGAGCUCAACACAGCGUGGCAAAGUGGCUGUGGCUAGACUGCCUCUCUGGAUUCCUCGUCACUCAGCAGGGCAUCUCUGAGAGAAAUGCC

# Variants of: B1
# TEST: self-cleavage, relative activity (ratio to wild type); higher = more cleavage; in vitro, sequencing; the parent is a self-cleaving ribozyme
Classification field: Fulfilled = self-cleavage at or over 1; Not fulfilled = self-cleavage under 1.

Input: Could you please find out whether A42U U100C has self-cleavage that meets 1 or exceeds it?
Output: Fulfilled

Input: Could you please find out whether U87A G106A has self-cleavage that meets 1 or exceeds it?
Output: Not fulfilled

Input: Could you please find out whether A65G A136U has self-cleavage that meets 1 or exceeds it?
Output: Not fulfilled

Input: Could you please find out whether G60C U73C has self-cleavage that meets 1 or exceeds it?
Output: Not fulfilled

Input: Could you please find out whether G8U A59U has self-cleavage that meets 1 or exceeds it?
Output: Not fulfilled

New cases:
Input: Could you please find out whether A24U U115C has self-cleavage that meets 1 or exceeds it?
Output: Fulfilled

Input: Could you please find out whether C19U U112C has self-cleavage that meets 1 or exceeds it?
Output: Fulfilled

Input: Could you please find out whether U14C U23C has self-cleavage that meets 1 or exceeds it?
Output: Fulfilled
